Tested on: HS 578T breast
Assay Details: NCI-60 one-dose screen, 48 h
Study Conditions: 10 µM unless noted
The panel holds about 83,000 compounds, 20% with a hit somewhere; the sample as a whole holds those more often. The source made the active and inactive calls. The calls were made as follows: active = growth percent below 10; inactive = the rest.
Outcomes: 1 (yes) = active, 0 (no) = inactive

Compound	Category Label
CC(=O)O[C@H](C[C@H](C(C)C)N(C)C(=O)[C@@H](NC(=O)[C@H]1CCCCN1C)C(C)C)c1nc(C(=O)N[C@@H](Cc2ccccc2)C[C@H](C)C(=O)O)c(C(C)C)s1	0 (no)
C=CCc1cc2c(cc1OCC)OCO2	0 (no)
Nc1nnnc2nc[nH]c12	1 (yes)
ClC1=C(Cl)C(Cl)(C2(Cl)C(Cl)=C(Cl)C(Cl)=C2Cl)C(Cl)=C1Cl	0 (no)
O=NNc1ccccn1	0 (no)
CC[C@H](C)[C@H](NC(=O)[C@H]1CCCCN1C)C(=O)N(C)[C@H](CC(=O)c1nc(C(=O)N[C@@H](Cc2ccccc2)C[C@H](C)C(=O)O)cs1)C(C)C	0 (no)
CC[C@H](C)[C@H](NC(=O)C12C3C4C1C1C2C3C41NC(C)=O)C(=O)N(C)[C@H](C[C@@H](OC(C)=O)c1nc(C(=O)N[C@@H](Cc2ccccc2)C[C@H](C)C(=O)OC)cs1)C(C)C (some centres not stated)	0 (no)
CN1CCCCC1C(C)(O)c1ccccc1 (configuration not stated)	0 (no)
CCOC(=O)CCC(NC(=O)C(Cc1ccc(N(CCCl)CCCl)cc1)NC=O)C(=O)OCC (configuration not stated)	0 (no)
N#C[Se]Cc1cc(-c2ccccc2)n(-c2ccc(S(N)(=O)=O)cc2)n1	1 (yes)
C/C(=C\c1ccn(-c2ccc(N)c(F)c2)n1)[C@@H]1C[C@@H]2O[C@]2(C)CCC[C@H](C)[C@H](O)[C@@H](C)C(=O)C(C)(C)[C@@H](O)CC(=O)O1	1 (yes)
CC(CO)NC1CCCCC1 (configuration not stated)	0 (no)
N#Cc1c(Br)n(C2OC(CO)C(O)C2O)c2ncnc(N)c12 (configuration not stated)	0 (no)
COC(=O)[C@@H](C)C[C@H](Cc1ccccc1)NC(=O)c1nc([C@@H](C[C@H](C(C)C)N(C)C(=O)[C@@H](NC(=O)[C@H]2CCCN2C)C(C)C)OC(C)=O)sc1C	0 (no)
Cc1c(NS(=O)(=O)c2ccccc2)ccc([N+](=O)[O-])c1Cl	0 (no)
COC(=O)[C@@H](C)C[C@H](Cc1ccccc1)NC(=O)c1nc([C@@H](C[C@H](C(C)C)N(C)C(=O)[C@@H](NC(=O)[C@H]2CCCCN2C)C(C)C)OC(C)=O)sc1C	0 (no)
COc1cc(/C=C/[N+](=O)[O-])c([N+](=O)[O-])cc1OC	0 (no)

----------
In this section we review reported growth values for a set of molecules.
Tested on: A549/ATCC NSCLC
Assay Details: NCI-60 one-dose screen, 48 h (100 = growth as untreated, 0 = no growth, -100 = all killed)
Study Conditions: 10 µM unless noted
The panel holds about 83,000 compounds, 20% with a hit somewhere; the sample as a whole holds those more often.
Parameter: growth (%)

Molecule	Measured On	Parameter	Test Result
CC12CC=CCC1CCC1C2CCC2(C)C(c3ccc(=O)oc3)CCC12O (centres undefined)	A549/ATCC NSCLC	growth	-37.7
CCOC(=S)S[C@H]1C[C@@H]2[C@H](CC[C@]3(C)C(=O)CC[C@@H]23)[C@@]2(C)CCC(=O)C=C12	A549/ATCC NSCLC	growth	107
COc1cc(/C=C/[N+](=O)[O-])c([N+](=O)[O-])cc1OC	A549/ATCC NSCLC	growth	78
COc1ccc(-n2c(C)nc3cc(OC)c(OC)cc3c2=O)cc1OC	A549/ATCC NSCLC	growth	98
CCCCCCCC[N+](C)(CCCCCCCC)CCCCCCCC	A549/ATCC NSCLC	growth	-100
COC(=O)[C@@H](C)C[C@H](Cc1ccccc1)NC(=O)c1csc([C@@H](C[C@H](C(C)C)N(C)C(=O)[C@@H](NC(=O)C23CC(NC(C)=O)(C2)C3)C2CC2)OC(C)=O)n1	A549/ATCC NSCLC	growth	93.5
N#CC1(C#N)C(c2ccc(N(CCCl)CCCl)cc2)OC23CCCCC2C1(C#N)C(=N)O3 (centres undefined)	A549/ATCC NSCLC	growth	97.3
CC1CCCC(C[N+](C)(C)C)C1=O (centres undefined)	A549/ATCC NSCLC	growth	104
COc1cc(C=Nc2cccc(C(=O)O)c2)ccc1N(CCCl)CCCl	A549/ATCC NSCLC	growth	96.6

----------
System: UACC-257 melanoma
Assay Details: NCI-60 one-dose screen, 48 h (100 = growth as untreated, 0 = no growth, -100 = all killed)
Study Conditions: 10 µM unless noted
About 83,000 compounds went through this panel and 20% of them were active in at least one assay; those are over-represented in the sample as a whole.
Each entry below carries its reported growth.
Parameter: growth (%)

Compound	Test Result
O=C1OCCC1Br (stereo not given)	83
CC12CCC3C(C=CC4=C(N)C(=O)CCC43C)C1CCC2=O (stereo not given)	86.7
CCN(CC)c1ccc2c(c1)OC(N)=C(C#N)C2c1cc(OC)c2c(c1)OCO2 (stereo not given)	77.7
COc1ccc(C2=CC(c3ccc(OC)c(OC)c3)c3c(c4ccccc4oc3=O)O2)cc1OC (stereo not given)	66.9
COc1cc(/C=C\c2cc(OC)c(OC)c(OC)c2)cc(N/C=C\C(=O)c2cc(OC)c(OC)c(OC)c2)c1OC	68.1

----------
System: SR leukemia
Assay Details: NCI-60 one-dose screen, 48 h (100 = growth as untreated, 0 = no growth, -100 = all killed)
Study Conditions: 10 µM unless noted
The panel holds about 83,000 compounds, 20% with a hit somewhere; the sample as a whole holds those more often.
Recorded growth values for a group of molecules are listed next.

Molecule	growth [%]
CC[C@H](C)[C@H](NC(=O)C12C3C4C1C1C2C3C41NC)C(=O)N(C)[C@H](C[C@@H](OC(C)=O)c1nc(C(=O)N[C@@H](Cc2ccccc2)C[C@H](C)C(=O)OC)cs1)C(C)C (some centres not stated)	20
CO[C@H]1CC[C@@]2(C)C(=CC[C@@H]3[C@@H]2CC[C@]2(C)C(=O)C(=O)C[C@@H]32)C1	107
COc1ccc(/C=C\c2cc(OC)c(OC)c(OC)c2)cc1OCC(=O)Nc1nc2ccc(OC(F)(F)F)cc2s1	31.5
CCC1(C(C)C)C(=O)NC(=S)NC1=O	104
CC12CCC=CC1CCC1C2CCC2(C)C(c3ccc(=O)oc3)CCC12O (configuration not stated)	-4.41
COC(=O)[C@@H](C)C[C@H](Cc1ccccc1)NC(=O)c1nc([C@@H](C[C@H](C(C)C)N(C)C(=O)[C@@H](NC(=O)[C@H]2CCCN2C)C(C)C)OC(C)=O)sc1C	5.28
C=CC[n+]1ccc(-c2cc[n+](CC=C)cc2)cc1	93.9
CCOC(=O)[C@@H](C)C[C@H](Cc1ccccc1)NC(=O)c1csc([C@@H](C[C@H](C(C)C)N(C)C(=O)[C@@H](NC(=O)[C@H]2C[C@H](O)CCN2C)C(C)C)OC(C)=O)n1	5.63
O=C(CC1(O)C(=O)Nc2ccc(Br)cc21)c1ccc(C(=O)NCC2CCC3(CC2)OOC2(CCCCC2)OO3)cc1 (configuration not stated)	-38.7
CC(C)CCC1(CCCl)C(=O)NC(=O)NC1=O	102
CCCc1cc(O)c2c3c(c(=O)oc2c1)CN(C)CC3	15.8
CCCCCCCCOC(=O)CCN1CC1	101
O=Cc1cn(Cc2ccc(Cl)cc2)c2ccccc12	80.9
COC(=O)[C@@H](C)C[C@H](Cc1ccccc1)NC(=O)c1csc([C@@H](C[C@H](C(C)C)N(C)C(=O)C2(NC(=O)[C@H]3CCCCN3C)CC2)OC(C)=O)n1	11
COC(=O)C12CC(NC(=O)c3csc([C@@H](C[C@H](C(C)C)N(C)C(=O)[C@@H](NC(=O)[C@H]4CCCCN4C)C4CC4)OC(C)=O)n3)(C1)C2	17.5
NC(=S)c1cn(C2OC(CO)C(O)C2O)c2ncnc(N)c12 (configuration not stated)	-50.4
Cc1cc(-c2nc3cc(F)ccc3[se]2)cc(F)c1N	23.9

----------
Test system: SW-620 colon
Assay Details: NCI-60 one-dose screen, 48 h
Study Conditions: 10 µM unless noted
Compounds without any hit were thinned out: in the full panel of roughly 83,000, 20% have a hit. Active and inactive are the calls of the source. The calls were made as follows: active = growth percent below 10; inactive = the rest.
Outcome codes: active, inactive

Compound	Measured On	Category Label
CC(=O)Nc1nc2c(s1)CC[C@@]1(C)C2=CC[C@H]2[C@@H]3CC[C@H](O)[C@@]3(C)CC[C@@H]21	SW-620 colon	inactive
ClCCN(CCCl)c1nc(Cl)c(C2CC(c3ccccc3)=NN2c2cc(Cl)cc(Cl)c2)s1 (stereo not given)	SW-620 colon	inactive
O=C1N[C@@H]2[C@@H](O)[C@@H](O)[C@H](O)C[C@H]2c2cc3c(c(O)c21)OCO3	SW-620 colon	active
C1CCC([PH+](C2CCCCC2)C2CCCCC2[PH+](C2CCCCC2)C2CCCCC2)CC1.O=C(C1[CH-]CCCC1)C1CCCC[N-]1.[Au] (stereo not given)	SW-620 colon	active
[Cl][Hg][n]1c(-c2ccco2)nc2ccccc21	SW-620 colon	inactive
CC1(C)N=C(N)N=C(N)N1c1ccc(CCC(=O)Nc2ccc(S(=O)(=O)F)cc2)c(Cl)c1	SW-620 colon	inactive
CC(=O)Nc1ccc(NC(=O)c2ccc([As](O)O)cc2)cc1	SW-620 colon	inactive
CCOC(=O)[C@@H](C)C[C@H](Cc1ccccc1)NC(=O)c1nc([C@@H](C[C@H](C(C)C)N(C)C(=O)[C@@H](NC(=O)[C@H]2CCCCN2C)C(C)C)OC(C)=O)sc1CCOCc1ccccc1	SW-620 colon	active
CCOC(=O)[C@@H](C)C[C@H](Cc1ccccc1)NC(=O)c1csc([C@@H](C[C@H](C(C)C)N(C)C(=O)[C@@H](NC(=O)[C@H]2C[C@H](O)CCN2C)C(C)C)OC(C)=O)n1	SW-620 colon	inactive
CC(C)CCC(=O)O[C@H]1CC[C@H]2[C@@H]3CCC4=CC(=O)CC[C@]4(C)[C@H]3CC[C@]12C	SW-620 colon	inactive
NC(=S)c1cn(C2OC(CO)C(O)C2O)c2ncnc(N)c12 (stereo not given)	SW-620 colon	active
COc1cccc(/C=C/[N+](=O)[O-])c1	SW-620 colon	inactive
CN[C@]1(c2ccccc2Cl)CCCC[C@H]1NCCCN1CCN(C)CC1	SW-620 colon	inactive
c1cnc2[nH]cc(-c3csc(-c4cn(CCCCN5CCOCC5)c5ccccc45)n3)c2c1	SW-620 colon	inactive
Nc1ccc(-c2nc3cc(F)ccc3[se]2)cc1F	SW-620 colon	inactive
CC12CCC=CC1CCC1C2CCC2(C)C(c3ccc(=O)oc3)CCC12O (stereo not given)	SW-620 colon	active
O[C@H](CN1CC1)[C@@H](O)CN1CC1	SW-620 colon	inactive
COC(=O)[C@@H](C)C[C@H](Cc1ccccc1)NC(=O)c1csc([C@@H](C[C@H](C(C)C)N(C)C(=O)C2(NC(=O)[C@H]3CCCCN3C)CC2)OC(C)=O)n1	SW-620 colon	inactive
COc1cc(C=Nc2cccc(C(=O)O)c2)ccc1N(CCCl)CCCl	SW-620 colon	inactive
CC(=O)O[C@H](C[C@H](C(C)C)N(C)C(=O)[C@@H](NC(=O)[C@H]1CCCCN1C)C(C)C)c1nc(C(=O)N[C@@H](Cc2ccccc2)C[C@H](C)C(=O)O)c(CCOCc2ccccc2)s1	SW-620 colon	inactive
C[N+](C)(C)Cc1cc(Cl)ccc1O	SW-620 colon	inactive
CC[C@H](C)[C@H](NC(=O)[C@H]1CCCCN1C)C(=O)N(C)[C@H](C[C@@H](O)c1nc(C(=O)N[C@@H](Cc2ccccc2)C[C@H](C)C(=O)O)cs1)C(C)C	SW-620 colon	inactive
CNCc1cccnc1	SW-620 colon	inactive
COc1cccc(C=NC(Cc2cnc[nH]2)C(=O)O)c1O (stereo not given)	SW-620 colon	inactive
CC[C@H](C)[C@H](NC(=O)C12CC(NC(C)=O)(C1)C2)C(=O)N(C)[C@H](C[C@@H](OC(C)=O)c1nc(C(=O)N[C@@H](Cc2ccccc2)C[C@H](C)C(=O)OC)cs1)C(C)C	SW-620 colon	inactive
ClCCN(CCCl)Cc1ccc(Nc2ccnc3cc(Cl)ccc23)cc1	SW-620 colon	inactive
CC[C@H](C)[C@H](NC(=O)c1nccn1C)C(=O)N(C)[C@H](C[C@@H](OC(C)=O)c1nc(C(=O)N[C@@H](Cc2ccccc2)C[C@H](C)C(=O)OC)cs1)C(C)C	SW-620 colon	inactive
NC(=O)C(Br)c1ccccc1 (stereo not given)	SW-620 colon	inactive
C=C1[C@@H](C)[C@H]2[C@H](Cc3ccccc3)NC(=O)[C@]23[C@@H](O)/C=C/[C@@](C)(O)C(=O)[C@@H](C)C/C=C/[C@H]3[C@@H]1O	SW-620 colon	inactive
O=C(Nc1ccncc1F)c1cn(CC2CC2)c2ccccc12	SW-620 colon	inactive
ClCCN(CCCl)c1ccc(/C=N\N=C\c2ccc(N(CCCl)CCCl)cc2)cc1	SW-620 colon	inactive
Fc1ccc2c(c1)c(-c1nc(-c3c[nH]c4ncccc34)cs1)cn2CCCCN1CCCCC1	SW-620 colon	active
CCCCCCCCCCCCCCCCCCOc1ccccc1COP(=O)(O)OOCC[N+](C)(C)C	SW-620 colon	active
CN(C)C(=O)Oc1ccccc1	SW-620 colon	inactive
O=C1CNC(c2ccccc2)c2cc(Cl)ccc2N1 (stereo not given)	SW-620 colon	inactive
